EXPERIMENT: Oral bioavailability in Wistar rat at 0.2 to 1 mg/kg measured up to 24 hrs by HPLC-MS-MS analysis
Type: ADME, organism-based
CONDITION CONTEXT: in vivo
MEASURED PROPERTY: bioavailability (%)
Output spec: scalar in %, unitless text.

Example molecules with recorded bioavailability:
{"columns": ["SAMPLE SMILES", "bioavailability [%]"],
 "data": [
  ["COc1cc(N2CCOC2=O)ccc1Nc1nc2ccc(-c3ccc(NC(=O)Cc4ccc(F)cc4)cc3)cn2n1", 52],
  ["COc1ccc(Oc2cc(NCCC(F)(F)F)c3ncc(-c4ccc(C(=O)NC5CC5)c(C)c4)n3n2)c(F)c1F", 72],
  ["COc1ccccc1Nc1nc2ccc(-c3ccc(NC(=O)Cc4ccccc4)cc3)cn2n1", 9],
  ["COc1cc(S(C)(=O)=O)ccc1Nc1nc2ccc(-c3ccc(NC(=O)Cc4ccc(F)cc4)cc3)cn2n1", 49],
  ["COc1cc(C(=O)N2CCOCC2)ccc1Nc1nc2ccc(-c3ccc(NC(=O)Cc4ccc(F)cc4)cc3)cn2n1", 20],
  ["N#Cc1ccccc1Nc1nc2ccc(-c3ccc(NC(=O)Cc4ccccc4)cc3)cn2n1", 12],
  ["COc1cc(C(=O)N2C[C@@H]3C[C@H]2CO3)ccc1Nc1nc2ccc(-c3ccc(NC(=O)Cc4ccc(F)cc4)cc3)cn2n1", 17]
]}

Now examine the next entry.
The molecule identified as Cc1cc(-c2cnc3c(NCCC(F)(F)F)cc(C4(c5cc(F)ccc5O)CC4)nn23)ccc1C(=O)NC1CC1 registered its bioavailability at 45

Data provenance is ChEMBL document CHEMBL4619753.
